Where these numbers come from: the supplement of paper PMC11061612

system: NCI-H2595 (Mesothelioma); test: Bliss excess, mean over the matrix (fraction); higher = more synergy;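 further: after 72 h of two-drug dosing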
Give measured Bliss excess for each item. Keep answers brief.
Hey, just send me the number, nothing else.

query: I'd like to know its Bliss excess. The compound in question is NC1(C(=O)N[C@@H](CCO)c2ccc(Cl)cc2)CCN(c2ncnc3[nH]ccc23)CC1 [Capivasertib] + CCN(CCO)CCCOc1ccc2c(Nc3cc(CC(=O)Nc4cccc(F)c4)[nH]n3)ncnc2c1 [AZD2811] (first compound max 10 µM, 7x7, partner max 1 µM)
result: -0.0718

query: Another compound: N#Cc1cnc(Nc2cc(NC[C@H]3CNCCO3)c(C(F)(F)F)cn2)cn1 [SRA737] + CCc1c2c(nc3ccc(O)cc13)-c1cc3c(c(=O)n1C2)COC(=O)[C@]3(O)CC [SN-38] (first compound max 10 µM, 7x7, partner max 0.3 µM)
result: -0.0762

----------
Kindly state combination Emax for each of the entries shown.
tested on: IHH-4 (Thyroid Gland Carcinoma); assay: combination Emax (second highest fraction inhibited in the dose matrix, 72 h); higher = more inhibition; extreme values may be limits of the assay
Give your answer as a number; write no unit.

query: Quick check: combination Emax of CS(=O)(=O)CCNCc1ccc(-c2ccc3ncnc(Nc4ccc(OCc5cccc(F)c5)c(Cl)c4)c3c2)o1 [Lapatinib] + Cn1cnc2c(F)c(Nc3ccc(Br)cc3Cl)c(C(=O)NOCCO)cc21 [Selumetinib] (first compound max 10 µM, 7x7, partner max 10 µM) ?
result: 0.563

query: Now consider NC1(C(=O)N[C@@H](CCO)c2ccc(Cl)cc2)CCN(c2ncnc3[nH]ccc23)CC1 [Capivasertib] + CC(C)n1c(=O)n(C)c2cnc3cc(F)c(-c4ccc(OCCCN5CCCCC5)nc4)cc3c21 [AZD1390] (first compound max 10 µM, 7x7, partner max 0.3 µM) and answer again.
result: 0.203

query: Queued: CC(=O)c1c(C)c2cnc(Nc3ccc(N4CCNCC4)cn3)nc2n(C2CCCC2)c1=O [Palbociclib] + CC1(C)CCC(CN2CCN(c3ccc(C(=O)NS(=O)(=O)c4ccc(NCC5CCOCC5)c([N+](=O)[O-])c4)c(Oc4cnc5[nH]ccc5c4)c3)CC2)=C(c2ccc(Cl)cc2)C1 [Venetoclax] (first compound max 10 µM, 7x7, partner max 1 µM)
result: 0.393

----------
tested on: MDA-MB-231 (Breast Carcinoma); assay: combination Emax (second highest fraction inhibited in the dose matrix, 72 h); higher = more inhibition; extreme values may be limits of the assay
measure: combination Emax
Please give the numeric answer without any surrounding text.

query: Given CN(CCO)CC[C@H](CSc1ccccc1)Nc1ccc(S(=O)(=O)NC(=O)c2ccc(N3CCC([C@@H](O)c4ccccc4-c4ccc(Cl)cc4)CC3)cc2)cc1S(=O)(=O)C(F)(F)F [AZD4320] + CS(=O)(=O)CCNCc1ccc(-c2ccc3ncnc(Nc4ccc(OCc5cccc(F)c5)c(Cl)c4)c3c2)o1 [Lapatinib] (first compound max 1 µM, 7x7, partner max 10 µM) , state its recorded combination Emax.
result: 0.951

----------
test system: SN12C (Kidney Carcinoma); assay: combination Emax (second highest fraction inhibited in the dose matrix, 72 h); higher = more inhibition; extreme values may be limits of the assay
Could you please report measured combination Emax for the items listed next?
Form field (numeric): enter value without unit.

query: Record lookup: for SN12C (Kidney Carcinoma), what combination Emax belongs to Cn1cnc2c(F)c(Nc3ccc(Br)cc3Cl)c(C(=O)NOCCO)cc21 [Selumetinib] + C[C@@H]1COCCN1C2=NC(=NC(=C2)C3(CC3)[S@](=N)(=O)C)C4=C5C=CNC5=NC=C4 [AZD6738] (first compound max 10 µM, 7x7, partner max 10 µM) ?
result: 0.192

query: Likewise for CCN(CCO)CCCOc1ccc2c(Nc3cc(CC(=O)Nc4cccc(F)c4)[nH]n3)ncnc2c1 [AZD2811] + C[C@@H]1COCCN1C2=NC(=NC(=C2)C3(CC3)[S@](=N)(=O)C)C4=C5C=CNC5=NC=C4 [AZD6738] (first compound max 1 µM, 7x7, partner max 10 µM) ?
result: 0.212

query: How about Cc1cc2ncnn2cc1Nc1ncc2c(n1)n(C1CCOCC1)c(=O)n2C [AZD7648] + CN(C)CCCOc1ccc(-c2ccc3ncc4c(c3c2)n(C2CCOCC2)c(=O)n4C)cn1 [AZD0156] (first compound max 10 µM, 7x7, partner max 1 µM) ?
result: 0.262

query: What about this compound? CC1(C)CCC(CN2CCN(c3ccc(C(=O)NS(=O)(=O)c4ccc(NCC5CCOCC5)c([N+](=O)[O-])c4)c(Oc4cnc5[nH]ccc5c4)c3)CC2)=C(c2ccc(Cl)cc2)C1 [Venetoclax] + CN(C)CCCOc1ccc(-c2ccc3ncc4c(c3c2)n(C2CCOCC2)c(=O)n4C)cn1 [AZD0156] (first compound max 1 µM, 7x7, partner max 1 µM)
result: 0.249
